Provenance of the data: patent US20150086555A1

experimental-target: recombinant soluble homotrimeric HA of A/South Carolina/1/18 (H1N1) (Influenza A virus A/South Carolina/1/18 (H1N1))
test-details: trimeric HA microarray, transfection supernatant set 3
condition-context: remark: other sources report otherwise
We begin with a simple list: items and their reported Trimeric HA Binding: RLU.
Numbers only here, please. The scale is RLU.

Below are worked cases with known answers.
binder: TCN-529 (5297_H01) (antibody, V domains shown) VH: QITLRESGPTLVKPTQTLTLTCTFSGFSLSTNGVNVGWIRQPPGKALEWLALIYWDDDKRYSPSLKRRLTITKDTSKNQVVLTLTNMDPVDTATYYCAHRPDFYGDFEYWGPGTLVTVSS VL: QSALTQPASVSGSPGQSITISCTGSSSDIGGYNYVSWYQQHPGKAPKLMIYDVNNRPSGVSNRFSGSKSGNTASLTISGLQTDDEADYYCGSYTGSPHYVFGTGTKVTVL
reported-result: 158
//
binder: TCN-523 (5248_A17) (antibody, V domains shown) VH: QVQLVQSGAEVKKPGSSVKVSCKASGGSFSNYAFSWVRQAPGQGLEWMGGTIPLLGTTNYAQKFQGRVTISADQFTSTAYMELGSLRSEDTAVYYCTRRKMTTAFDSWGQGTLVTVSS VL: QPVLTQPPSASASLGASVTLTCTLSSAYSNYKVDWYQQRPGKGPRFVMRVGTGGIVGSKGDGIPDRFSVLGSGLNRYLTIKNIQEEDESDYHCGADHGSGSNFVSPYVFGGGTKLTVL
reported-result: 23700

Let us examine a further case.
Quote Trimeric HA Binding: RLU reported for TCN-530 (5248_H10a) (antibody, V domains shown) VH: QVQLVQSGAEVRKPGSSVKVSCKASGGPFMSYAIGWVRQAPGQGLEWMGGINPVFGRPHYAQKFQGRVTIATDDSTKTSYMELSSLTSEDTGMYYCASRYSRSSPGTFESWGQGTLVTVSS VL: EIVMTQFPATLSVSPGERVTLSCRASQSVSNNLAWYQQKPGQPPRLLIYDASTRATGVPAKFSGTGSGTEFTLSISSLQSEDFAVYYCQQYHNWPPSYSFGLGTKLEIK please.
17200
